biological target: T1, human c-Met, membrane-bound on cells (human, UniProt P08581 25-1390); assay: flow cytometry on A431 cells
T1 construct: whole, on cells; A431 cells carry on average 30,000 copies of c-Met per cell (Qifi); also called c-Met expressed on A431 cells; c-Met on A549 cells
T1 sequence (P08581 25-1390): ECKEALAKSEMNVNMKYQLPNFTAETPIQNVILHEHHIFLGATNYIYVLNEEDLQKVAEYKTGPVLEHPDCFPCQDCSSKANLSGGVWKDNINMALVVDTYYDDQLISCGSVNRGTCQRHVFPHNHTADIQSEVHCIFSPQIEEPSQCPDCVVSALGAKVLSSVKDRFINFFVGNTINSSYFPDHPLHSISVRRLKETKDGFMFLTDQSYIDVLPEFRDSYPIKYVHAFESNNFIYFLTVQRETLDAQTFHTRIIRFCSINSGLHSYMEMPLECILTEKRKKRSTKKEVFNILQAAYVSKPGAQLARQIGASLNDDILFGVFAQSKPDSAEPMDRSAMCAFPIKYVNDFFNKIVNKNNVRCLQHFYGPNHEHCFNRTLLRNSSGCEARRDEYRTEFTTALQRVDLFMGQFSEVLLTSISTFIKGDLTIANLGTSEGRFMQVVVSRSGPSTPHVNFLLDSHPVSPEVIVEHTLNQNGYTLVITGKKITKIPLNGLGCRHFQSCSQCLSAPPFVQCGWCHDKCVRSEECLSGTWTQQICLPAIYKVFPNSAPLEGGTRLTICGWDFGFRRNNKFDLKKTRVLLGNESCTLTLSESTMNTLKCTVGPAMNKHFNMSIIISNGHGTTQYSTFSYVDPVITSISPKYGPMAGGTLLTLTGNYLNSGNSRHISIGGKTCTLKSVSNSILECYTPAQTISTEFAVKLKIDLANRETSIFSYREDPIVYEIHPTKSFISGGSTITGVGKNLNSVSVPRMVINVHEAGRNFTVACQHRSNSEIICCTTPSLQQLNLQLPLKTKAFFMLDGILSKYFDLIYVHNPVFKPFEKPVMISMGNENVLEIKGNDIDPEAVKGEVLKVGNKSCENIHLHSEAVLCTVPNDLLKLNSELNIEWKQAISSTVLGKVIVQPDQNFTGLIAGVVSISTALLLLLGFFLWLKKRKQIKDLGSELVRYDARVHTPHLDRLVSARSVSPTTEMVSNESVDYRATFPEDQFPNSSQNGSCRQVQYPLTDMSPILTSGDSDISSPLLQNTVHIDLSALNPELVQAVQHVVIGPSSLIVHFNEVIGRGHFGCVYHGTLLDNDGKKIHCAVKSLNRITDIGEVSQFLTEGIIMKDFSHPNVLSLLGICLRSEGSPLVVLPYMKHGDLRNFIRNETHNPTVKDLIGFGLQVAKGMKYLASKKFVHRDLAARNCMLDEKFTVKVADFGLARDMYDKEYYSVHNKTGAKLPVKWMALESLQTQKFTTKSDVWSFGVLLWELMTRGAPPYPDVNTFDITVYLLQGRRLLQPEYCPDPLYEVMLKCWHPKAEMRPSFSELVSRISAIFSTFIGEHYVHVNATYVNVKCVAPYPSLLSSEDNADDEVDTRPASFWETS
TEST READOUT: fold change of EC50, UniBody molecule against IgG1 of the identical clone

Reference set (4 entries):
[
  {
    "BINDER": "UniBody molecule of antibody 098 (other) VH: QVQLVQSGAEVKKPGASVKVSCKASGYTFTNFGISWVRQAPGQGLEWMGWISAFNGHTDYSQKVQGRVTMTTDTSTSTAYMELRSLRSDDTAVFYCARSHYYGSGSPFDYWGQGTLVTVSS VL: DIQMTQSPSSLSASVGDRVTITCRASQGISNWLAWYQQKPEKAPKSLIYAASSLQSGVPSRFSGSGSGTDFTLTISSLQPEDFATYYCHQYKSYPWTFGQGTKVEIK",
    "REPORTED MEASUREMENT": "< 2 fold"
  },
  {
    "BINDER": "Uni-1016-069-TE (other, also called UniBody molecule of antibody 069) VH: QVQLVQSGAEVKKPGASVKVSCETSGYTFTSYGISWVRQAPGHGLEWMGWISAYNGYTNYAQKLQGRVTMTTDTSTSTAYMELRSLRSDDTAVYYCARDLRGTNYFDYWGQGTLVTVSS VL: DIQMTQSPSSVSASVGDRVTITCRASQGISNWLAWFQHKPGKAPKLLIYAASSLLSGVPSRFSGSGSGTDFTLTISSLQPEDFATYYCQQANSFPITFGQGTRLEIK",
    "REPORTED MEASUREMENT": "< 2 fold"
  },
  {
    "BINDER": "Uni-1016-058-TE (other, also called UniBody molecule of antibody 058) VH: EVQLVESGGGLVKPGGSLKLSCAASGFTFSDYYMYWVRQTPEKRLEWVATISDDGSYTYYPDSVKGRFTISRDNAKNNLYLQMSSLKSEDTAMYYCAREGLYYYGSGSYYNQDYWGQGTLVTVSS VL: AIQLTQSPSSLSASVGDRVTITCRASQGLSSALAWYRQKPGKAPKLLIYDASSLESGVPSRFSGSGSGTDFTLTISSLQPEDFATYYCQQFTSYPQITFGQGTRLEIK",
    "REPORTED MEASUREMENT": "> 2 fold"
  },
  {
    "BINDER": "Uni-1016-045-TE (other, also called UniBody molecule of antibody 045) VH: EVQLLESGGGLVQPGGSLRLSCAASGFTFSSYAMSWVRQAPGKGLEWVSVISGSGGITYYADSVKGRFTISRDNSKNTLYLQMNSLRAEDTAVYYCARDRGWGSDYWGQGTLVTVSS VL: EIVLTQSPATLSLSPGERATLSCRASQSVSSYLAWYQQKPGQAPRLLIYDASNRATGIPARFSGSGSGTDFTLTISSLEPEDFAVYYCQQRSNWPFTFGPGTKVDIK",
    "REPORTED MEASUREMENT": "> 2 fold"
  }
]

Reported fold change of EC50, UniBody molecule against IgG1 of the identical clone of Uni-1016-022-TE (other, also called UniBody molecule of antibody 022) VH: QVQLVESGGGVVQPGRSLRLSCAASGFTFSSYAMHWVRQAPGKGLEWVAVISYDGSNKYYADSVKGRFTISRDNSKNTLYLQMNSLRAEDTAVYYCARELLWFGELWGYFDLWGRGTLVTVSS VL: DIQMTQSPSSVSASVGDRVTITCRASQGISSWLAWYQHKPGKAPKLLIYAASSLQSGVPSRFSGSGSGTDFTLTISSLQPEDFATYYCQEASSFTWTFGQGTKVEIK : < 2 fold

Origin of values: patent US20150329642A1
